50% neutralization VR1814, MRC-9 reference
- SYSTEM: hCMV UL128 + UL130 + UL131A (HEK293T co-transfectant) (hCMV, UniProt P16837 1-171; P16772 1-214)
- Sequence (P16837 whole entry, chain 1 of 2): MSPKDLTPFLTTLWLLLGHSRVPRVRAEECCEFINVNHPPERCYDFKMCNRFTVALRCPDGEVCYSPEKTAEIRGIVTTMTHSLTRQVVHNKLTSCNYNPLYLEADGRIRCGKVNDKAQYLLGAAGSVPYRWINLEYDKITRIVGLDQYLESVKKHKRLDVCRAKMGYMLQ
- Sequence (P16772 whole entry, chain 2 of 2): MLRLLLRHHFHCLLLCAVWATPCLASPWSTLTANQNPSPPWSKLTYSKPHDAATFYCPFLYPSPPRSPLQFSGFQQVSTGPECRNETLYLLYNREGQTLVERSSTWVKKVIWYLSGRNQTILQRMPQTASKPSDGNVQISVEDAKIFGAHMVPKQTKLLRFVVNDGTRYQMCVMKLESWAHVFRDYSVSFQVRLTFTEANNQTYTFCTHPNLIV
- MEASUREMENT PROTOCOL: cell-based or functional assay

Please review the following examples before continuing.
binder="8C15 (antibody, V domains shown, human IgG; also called 8C15-biotin) VH: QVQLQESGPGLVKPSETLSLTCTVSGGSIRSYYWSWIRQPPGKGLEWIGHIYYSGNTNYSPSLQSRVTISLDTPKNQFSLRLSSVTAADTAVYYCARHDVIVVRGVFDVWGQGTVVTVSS VL: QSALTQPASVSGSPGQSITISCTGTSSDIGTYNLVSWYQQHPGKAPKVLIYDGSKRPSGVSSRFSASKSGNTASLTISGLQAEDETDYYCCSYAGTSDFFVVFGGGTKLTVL" property_measured="50% neutralization VR1814, MRC-9" result="> 2 µg/mL"
binder="7B13 (antibody, V domains shown, human IgG) VH: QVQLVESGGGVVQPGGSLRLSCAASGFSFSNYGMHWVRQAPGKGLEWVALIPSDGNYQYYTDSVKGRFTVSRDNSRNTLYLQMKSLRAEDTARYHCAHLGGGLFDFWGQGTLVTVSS VL: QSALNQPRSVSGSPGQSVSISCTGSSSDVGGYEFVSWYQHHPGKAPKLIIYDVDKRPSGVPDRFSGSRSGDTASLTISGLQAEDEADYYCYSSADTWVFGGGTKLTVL" property_measured="50% neutralization VR1814, MRC-9" result="> 2 µg/mL"

// below: 50% neutralization VR1814, MRC-9 requested for another binder
Form: binder = 7I13 (antibody, V domains shown, human IgG; also called 7113) VH: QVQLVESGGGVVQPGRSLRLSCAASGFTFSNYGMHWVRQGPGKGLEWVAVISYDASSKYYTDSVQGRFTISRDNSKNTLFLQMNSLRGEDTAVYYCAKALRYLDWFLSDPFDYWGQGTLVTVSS VL: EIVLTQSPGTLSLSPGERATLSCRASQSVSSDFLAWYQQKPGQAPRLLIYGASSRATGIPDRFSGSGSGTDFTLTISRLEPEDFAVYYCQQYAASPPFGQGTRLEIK ; 50% neutralization VR1814, MRC-9 = > 2 µg/mL

Hey, just so you know, these numbers are from patent US20170296650A1.
